The measurements presented in this section are drawn from ChEMBL document CHEMBL4513216.

Tested on: Plasmodium berghei
Experiment: Screen against P. berghei liver stage (PbLuc), transformed with Luciferase, at 10uM
Type: functional, HepG2
Details: tested at 10 uM
Screen size: about 69,000 compounds; about 8,600 (12%) showed an effect of 50% or more. For the sample, strong results were picked, then their nearest neighbours and some compounds at random.

| molecule | measurement-unit | INHIBITION |
| --- | --- | --- |
| CC(C)N1CCN(C)CC1c1nnc2ccc(C(=O)N3CCCC3)cn12 (centres undefined) | % | 82.8 |
| CNC(=O)Cn1cc(Nc2cccc(F)c2C#N)cn1 | % | -0.514 |
| O=C(Nc1cc(C(F)(F)F)c[nH]c1=O)C1CCCCN1 (centres undefined) | % | -5.51 |
| COc1nonc1NCn1nc(C)cc1C | % | 39.7 |
| Fc1cccc(-c2nccnc2C2CCCNC2)c1 (centres undefined) | % | 8.72 |
| Cc1nc(CCCNC(=O)[C@H]2CNC[C@@H](C(=O)N3CCCC3)C2)sc1C | % | 6.72 |
| Cn1cc(-c2ncc3c(c2C(=O)O)CCN(Cc2ccccn2)C3)cn1 | % | 29.4 |
| Cc1ccc(CN2CC[C@H](O)[C@@H](n3ccc(=O)[nH]c3=O)CC2)cc1 | % | 37.6 |
| NCCc1cn(Cc2ccccn2)c2ccccc12 | % | -18.2 |
| COC(=O)COc1c(F)cc(Br)cc1C(C)=O | % | 8.24 |
| Cc1nnc(N2C[C@@H](OCC3CCCC3)[C@H]3OCCC[C@H]32)s1 | % | -36 |
| O=C(COC1CCCC1)NS(=O)(=O)c1ccc2c(c1)OCCCO2 | % | 8.64 |
| CC(=O)N1CCN(CCCOc2ccccc2F)CC(C(N)=O)C1 (centres undefined) | % | 46 |
| CCc1nnc2n1CCN(C(C(=O)NC1CC1)c1ccc(F)cc1)C2 (centres undefined) | % | 2.61 |
| COc1c(C2CCCN2CC(=O)NCc2ccccn2)c(C)nn1C (centres undefined) | % | 19.6 |
| CN1CCN(C)C(c2nnc3ccc(C(=O)N4CCOCC4)cn23)C1 (centres undefined) | % | 8.03 |
| OCCNC1CCc2cc3c(cc21)OCCO3 (centres undefined) | % | 55.1 |
| COCCN1C(=O)CCC12CCC(NCc1cccnc1OC)CC2 (centres undefined) | % | 34.6 |
| COCCCC(=O)NS(=O)(=O)c1ccc2c(c1)OCCCO2 | % | 38.6 |
| CC(C)NC(=O)c1ccc2nnc(C3CN(C)CCN3C)n2c1 (centres undefined) | % | -37.9 |
| COc1ccc(C)cc1C(=O)NC1(C#N)CCOCC1 | % | 42.1 |
| CNC(=O)COc1c(F)cc(Br)cc1C(C)=O | % | 9.04 |
| CCN(c1cc(C)cc(C)c1)S(=O)(=O)c1cc(C(=O)O)cs1 | % | 42.9 |
| O=C(COCC(F)(F)F)NS(=O)(=O)c1ccc2c(c1)OCCCO2 | % | 63.5 |
